recorded.metric: melting point

O=C1NCN(c2ccccc2)C12CCN(C1CCCCC1c1ccccc1)CC2 (racemic) [Example 1]; 205 to 208 °C
O=C1NCN(c2ccccc2)C12CCN([C@H]1CCCC[C@H]1c1ccc(Cl)cc1)CC2 (racemic) [Example 11]; 204 to 206 °C
O=C1NCN(c2ccccc2)C12CCN([C@H]1CCCC[C@H]1c1ccc(Cl)c(Cl)c1)CC2 (racemic) [Example 13]; 198 to 200 °C

stdin: Give its melting point value. Item: O=C1NCN(c2ccccc2)C12CCN([C@H]1CCCC[C@H]1c1ccc(F)cc1)CC2 (racemic) [Example 10]
stdout: 198 to 200 °C

stdin: Give its melting point value. Item: O=C1NCN(c2ccccc2)C12CCN(C1CCCCC1c1ccccc1)CC2 (racemic) [Example 68]
stdout: 254 to 256 °C

stdin: Give its melting point value. Item: Cc1ccc(C2CCCCC2N2CCC3(CC2)C(=O)NCN3c2ccccc2)cc1 (racemic) [Example 8]
stdout: 174 to 176 °C
